Target Or Test System: T1, Human IL-11 (human, UniProt P20809 22-199)
T1 construct: Recombinant human IL-11 (GenScript Cat. No. Z03108-1) or IL-11 secreted by human cells; the mature form is said to have 178 residues; also called recombinant human IL-11; endogenously produced IL-11
T1 sequence: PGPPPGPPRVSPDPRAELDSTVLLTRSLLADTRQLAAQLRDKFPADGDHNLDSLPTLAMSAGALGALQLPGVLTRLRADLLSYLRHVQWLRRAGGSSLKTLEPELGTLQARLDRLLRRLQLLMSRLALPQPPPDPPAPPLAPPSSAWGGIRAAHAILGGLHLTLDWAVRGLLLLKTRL
Procedure Details: ELISA
Method: The soluble scFv were produced by recombinant expression in E. coli, and analysed for their ability to bind to human IL-11 and murine IL-11 by ELISA. Briefly, the respective antigen was coated to wells of an ELISA plate, the cell culture supernatant containing the respective scFv was added at a 1:2 dilution, and binding was detected.
Reported Property: hIL11 - average signal

Below are worked cases with known answers.
1. YU100-F02 (antibody) EVQLVESGGGVVQPGRSLRLSCAASGFTFSSYGMHWVRQAPGKGLEWVAVISYDGSNKYYADSVKGRFTISRDNSKNTLYLQMNSLRAEDTAVYYCAKIGATDPLDYWGQGTLVTVSSGSASAPKLEEGEFSEARVQSALTQPRSVSGSPGQSVTISCTGTSSDVGGYNYVSWYQQHPGKAPKLMIYDVTKRPSGVPDRFSGSKSGNTASLTISGLQADDEADYYCCSYAGSYTWIFGGGTKLTVL ... 0.361
2. YU100-F05 (antibody) QVQLQQSGGGVVQPGRSLRLSCAASGFTFSSYGMHWVRQAPGKGLEWVAVISYDGSNKYYADSVKGRFTISRDNSKNTLYLQMNSLRAEDTAVYYCAKIGATDPLDYWGQGTLVTVSSGSASAPKLEEGEFSEARVQAVLTQPASVSGSPGQSITISCTGTSSDIGGYNYVSWYQQHPGTAPKLMIYDVSSRPSGVSNRFSGSKSGNTASLTISGLQAEDEADYYCCSYAGSYTWVFGGGTKMTVL ... 0.304

What value of hIL11 - average signal has been recorded for this entry: YU112-C03 (antibody) QVQLVESGGGVVQPGRSLRLSCAASGFTFSSYGMHWVRQAPGKGLEWVAVISYDGSNKYYADSVKGRFTISRDNSKNTLYLQMNSLRAEDTAVYYCAKGGKSYYGFDYWGQGTLVTVSSGSASAPKLEEGEFSEARVDSVMTQSPSSLSASVGDRVTITCRASQAINSYLNWYQQKPGKAPKLLIYAASSLQSGVPSRFSGSGSGTDFTLTISGLQPEDFATYYCQQSYSTPSWTFGQGTKVEIK
0.566
